# GI50 annotations
- Tested on: MDA-MB-436 cells
- protocol.text: CTG Protocol (MDA-MB-436 GI50), antiproliferative activity
- Assay type: cell-based, human
- condition: Homo sapiens, 168 h; MDA-MB-436 cells (BRCA1 mutation), 7-day incubation, CellTiter-Glo

Sample records with GI50:
[
  {
    "compound": "Cc1ncnc(C2CC2)c1-c1ncc2ccc(=O)n(Cc3ccc(-c4nc(C(F)(F)F)cn4C)cc3)c2n1",
    "GI50": "100 to 1000 nM"
  },
  {
    "compound": "COc1ncnc(C2CC2)c1-c1nc(C)c2cc(C3CCN(C)CC3)c(=O)n(Cc3ccc(-c4nc(C(F)(F)F)cn4C4CC4)cc3)c2n1",
    "GI50": "< 10 nM"
  },
  {
    "compound": "COc1ncnc(OC)c1-c1ncc2ccc(=O)n(Cc3ccc(-c4nc(C(F)(F)F)cn4C)cc3)c2n1",
    "GI50": "10 to 100 nM"
  },
  {
    "compound": "COc1ncnc(C2CC2)c1-c1ncc2ccc(=O)n(Cc3ccc(-c4ncccc4F)cc3)c2n1",
    "GI50": "100 to 1000 nM"
  },
  {
    "compound": "COc1ncnc(C2CC2)c1-c1ncc2cc(-c3nnc(C)n3C)c(=O)n(Cc3ccc(-c4nc(C(F)(F)F)cn4C4CC4)cc3)c2n1",
    "GI50": "10 to 100 nM"
  }
]

GI50 recorded for this compound, COc1ncnc(C2CC2)c1-c1ncc2cc(-c3nccn3C)c(=O)n(Cc3ccc(-c4nc(C(F)(F)F)cn4C4CC4)cc3)c2n1 , is 10 to 100 nM

The compound COc1ncnc(C2CC2)c1-c1ncc2cc(-c3cnnn3C)c(=O)n(Cc3ccc(-c4nc(C(F)(F)F)cn4C4CC4)cc3)c2n1 showed GI50 equal to 10 to 100 nM

For record COc1ncnc(C2CC2)c1-c1ncc2ccc(=O)n(Cc3ccc(-c4ncccc4OC(C)C)cc3)c2n1 the listed GI50 is 10 to 100 nM

---

Reported pIC50 is given for each of the following compounds.
- test.system: recombinant USP1/UAF1 enzyme complex (Homo sapiens)
- Sequence (O94782 whole entry): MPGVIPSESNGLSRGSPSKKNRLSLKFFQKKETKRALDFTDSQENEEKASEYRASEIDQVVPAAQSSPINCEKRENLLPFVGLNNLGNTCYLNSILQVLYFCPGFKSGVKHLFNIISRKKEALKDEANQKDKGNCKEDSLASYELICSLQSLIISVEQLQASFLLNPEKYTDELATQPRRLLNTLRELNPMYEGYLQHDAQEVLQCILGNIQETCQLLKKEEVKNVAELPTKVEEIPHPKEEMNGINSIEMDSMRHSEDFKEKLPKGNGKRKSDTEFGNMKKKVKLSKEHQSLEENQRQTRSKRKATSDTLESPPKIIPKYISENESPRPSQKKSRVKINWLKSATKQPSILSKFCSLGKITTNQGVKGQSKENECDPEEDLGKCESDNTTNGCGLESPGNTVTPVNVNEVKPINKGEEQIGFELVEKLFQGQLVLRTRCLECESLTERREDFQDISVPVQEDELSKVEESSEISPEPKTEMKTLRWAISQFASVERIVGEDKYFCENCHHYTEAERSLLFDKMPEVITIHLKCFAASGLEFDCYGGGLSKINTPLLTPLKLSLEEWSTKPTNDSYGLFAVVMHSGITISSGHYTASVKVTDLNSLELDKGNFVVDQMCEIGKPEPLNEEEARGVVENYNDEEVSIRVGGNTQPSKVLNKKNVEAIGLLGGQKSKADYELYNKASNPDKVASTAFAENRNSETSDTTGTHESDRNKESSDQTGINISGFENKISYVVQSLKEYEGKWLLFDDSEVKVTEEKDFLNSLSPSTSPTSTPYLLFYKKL
- Sequence (Q8TAF3 whole entry partner): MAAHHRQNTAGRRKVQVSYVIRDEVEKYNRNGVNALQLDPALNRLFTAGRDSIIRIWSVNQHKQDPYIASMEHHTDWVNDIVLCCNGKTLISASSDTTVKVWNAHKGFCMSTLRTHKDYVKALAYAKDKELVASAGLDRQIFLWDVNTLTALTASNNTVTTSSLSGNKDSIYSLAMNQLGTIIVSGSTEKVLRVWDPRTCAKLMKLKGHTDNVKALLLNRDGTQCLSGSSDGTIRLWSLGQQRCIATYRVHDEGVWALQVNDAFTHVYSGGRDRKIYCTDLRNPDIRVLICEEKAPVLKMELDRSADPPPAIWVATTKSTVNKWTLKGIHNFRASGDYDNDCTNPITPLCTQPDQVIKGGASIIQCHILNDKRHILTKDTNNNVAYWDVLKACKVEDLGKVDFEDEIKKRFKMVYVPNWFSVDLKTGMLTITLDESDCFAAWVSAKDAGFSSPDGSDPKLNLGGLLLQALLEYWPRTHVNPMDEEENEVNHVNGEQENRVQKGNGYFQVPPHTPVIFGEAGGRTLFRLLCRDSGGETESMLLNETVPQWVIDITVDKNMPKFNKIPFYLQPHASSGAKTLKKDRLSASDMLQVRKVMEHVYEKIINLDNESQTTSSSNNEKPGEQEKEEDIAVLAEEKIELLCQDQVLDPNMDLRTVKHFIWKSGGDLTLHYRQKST
- protocol.text: Enzyme assay: deubiquitinase fluorometric assay with ubiquitin-Rhodamine substrate
- condition: USP1/UAF1, Ub-Rho110 substrate, 2 hours preincubation, 1 hour reaction
pIC50: −log10 of the molar value.

See these solved cases before continuing.
[
  {
    "smiles.notation": "COc1ncnc(C2CC2)c1-c1ncc2cc(C3=CCN(C)CC3)c(=O)n(Cc3ccc(-c4nc(C(F)(F)F)cn4C)cc3)c2n1",
    "test.system": "recombinant USP1/UAF1 enzyme complex (Homo sapiens)",
    "assay.endpoint": "pIC50",
    "endpoint.result": "> 8.00"
  },
  {
    "smiles.notation": "COc1ncnc(C2CC2)c1-c1ncc2cc(C(F)F)c(=O)n(Cc3ccc(-c4nc(C(F)(F)F)cn4C)cc3)c2n1",
    "test.system": "recombinant USP1/UAF1 enzyme complex (Homo sapiens)",
    "assay.endpoint": "pIC50",
    "endpoint.result": "7.00 to 8.00"
  },
  {
    "smiles.notation": "COc1ncnc(C2CC2)c1-c1ncc2cc(CN3CCN(C)CC3)c(=O)n(Cc3ccc(-c4nc(C(F)(F)F)cn4C)cc3)c2n1",
    "test.system": "recombinant USP1/UAF1 enzyme complex (Homo sapiens)",
    "assay.endpoint": "pIC50",
    "endpoint.result": "7.00 to 8.00"
  },
  {
    "smiles.notation": "COc1cc(Cn2c(=O)ccc3cnc(-c4c(OC)ncnc4C4CC4)nc32)cc(F)c1-c1nc(C(F)(F)F)cn1C",
    "test.system": "recombinant USP1/UAF1 enzyme complex (Homo sapiens)",
    "assay.endpoint": "pIC50",
    "endpoint.result": "7.00 to 8.00"
  }
]

The reported pIC50 of the compound COc1ncnc(C2CC2)c1-c1ncc2ccc(=O)n(Cc3ccc(-c4cncc(C(F)(F)F)n4)cc3)c2n1 was 6.00 to 7.00

For record COc1cccnc1-c1ccc(Cn2c(=O)ccc3cnc(-c4c(OC)ncnc4C4CC4)nc32)cc1 the listed pIC50 is 7.00 to 8.00

Reported pIC50 ( CCn1cc(C(F)(F)F)nc1-c1ccc(Cn2c(=O)c(C(=O)N(C)C)cc3cnc(-c4c(OC)ncnc4C4CC4)nc32)cc1 ) = 7.00 to 8.00
